These entries and their values trace back to paper PMC9398005.

Target: T1, mouse Rbpj WT (53-474) (mouse, UniProt P31266 53-474)
T1 construct: also called CBF1; mouse CSL; source: E. coli BL21 Tuner, pGEX-6P1, purified (glutathione resin, PreScission cleavage, SP ion exchange)
T1 sequence (P31266 53-474): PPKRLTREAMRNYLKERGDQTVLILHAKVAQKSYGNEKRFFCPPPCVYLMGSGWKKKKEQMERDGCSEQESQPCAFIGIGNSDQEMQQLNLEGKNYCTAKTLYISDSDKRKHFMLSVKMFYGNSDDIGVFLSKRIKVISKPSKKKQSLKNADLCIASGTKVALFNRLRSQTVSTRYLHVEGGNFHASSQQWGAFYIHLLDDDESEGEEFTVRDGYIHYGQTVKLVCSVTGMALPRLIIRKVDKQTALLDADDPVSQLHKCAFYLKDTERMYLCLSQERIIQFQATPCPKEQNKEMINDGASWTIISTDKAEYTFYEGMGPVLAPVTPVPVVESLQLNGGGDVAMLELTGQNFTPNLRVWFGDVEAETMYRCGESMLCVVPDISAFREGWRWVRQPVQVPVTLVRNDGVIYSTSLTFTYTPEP
Assay: ITC; RAM peptide, Hairless or SHARP in the syringe, Su(H) or Rbpj in the cell; 50 mM sodium phosphate, 150 mM sodium chloride; 20 injections of 14 uL; triplicate; one site binding model; 20°C by the methods, 25°C by the legend of Fig 6
Conditions: both partners purified
Endpoint: pKd
To interpret pKd, take it as minus log10 of a concentration measured in moles per litre.

Provide one value: measured pKd of SHARP residues 2776-2833 (domain or fragment, human, UniProt Q96T58 2776-2833, looked up, the methods say human SHARP, the results and legend say mouse SHARP; species told as human in the methods and as mouse in the results and legend; also called mouse SHARP; source: bacterial recombinant, pSMT3, purified as previously described) RASANENSRFHPGSMPVIDDRPADAGSGAGLRVNTSEGVVLLSYSGQKTEGPQRISAK
8.46

State, in one line, measured pKd of VLLSRKRRRQHGQLWFPEGFKVSEASKK (Notch1, RAM domain; also called mNotch1 RAM; mouse Notch 1 RAM; source: synthetic peptide (Peptide2.0, 95% purity)) [Notch1 RAM peptide (residues 1754-1781)]
7.68
